ASSAY EXPLANATION: Liver microsomal stability, human liver microsomes
Format: in vitro ADME
ASSAY CONTEXT: 1 μM compound, NADPH, read-out: t1/2 (min) in HLM
ENDPOINT: half-life at 1 μM

// worked examples, half-life at 1 μM included
1. CCn1cc(C#N)nc1-c1ccc(Cn2ncc3cnc(-c4c(OC)ncnc4C4CC4)nc32)cc1; < 25 min
2. COc1ncnc(C2CC2)c1-c1ncc2cnn([C@H]3CCc4cc(-c5nc(C(F)(F)F)cn5C(C)C)ccc43)c2n1; > 25 min
3. COc1ncnc(C2CC2)c1-c1ncc2cnn(Cc3ccc(-c4nc(C(F)(F)F)c5n4CCNC5)cc3)c2n1; < 25 min
4. COc1ncnc(C2CC2)c1-c1ncc2cnn(Cc3ccc(-n4nc(C(F)(F)F)cc4N(C)C)c(F)c3)c2n1; < 25 min
5. CC(C)c1ccccc1-c1ncc2cnn(Cc3ccc(-c4nc(C(F)(F)F)cn4C4CN(C)C4)cc3)c2n1; < 25 min
6. COc1ncnc(C2(C)CC2)c1-c1ncc2cnn(Cc3ccc(-n4nc(C(F)(F)F)cc4C)cc3)c2n1; > 25 min

QUERY: Quick one: half-life at 1 μM of COc1ncnc(C2CC2)c1-c1ncc2cnn(Cc3ccc(-c4nc(C(F)(F)F)cn4CC(F)F)cc3)c2n1 ?
RESULT: > 25 min

QUERY: I am curious: what half-life at 1 μM value has been reported for COc1ncnc(C2CC2)c1-c1ncc2cnn(Cc3ccc(-c4nc(C(F)(F)F)cn4C4CC4)cc3)c2n1 ?
RESULT: > 25 min

QUERY: Tell me the measured half-life at 1 μM of COc1ncnc(C(C)(C)F)c1-c1ncc2cnn(Cc3ccc(-c4nc(C(F)(F)F)cn4C)cc3)c2n1 , please.
RESULT: < 25 min
